# targetUnderTest: T1, human ACVR2A (human, UniProt P27037 20-135, limits assumed); further: test concentration or dose not given here
# T1 construct: coated antigen of the initial ELISA; also called activin receptor, type II A
# T1 sequence (P27037 20-135 limits assumed): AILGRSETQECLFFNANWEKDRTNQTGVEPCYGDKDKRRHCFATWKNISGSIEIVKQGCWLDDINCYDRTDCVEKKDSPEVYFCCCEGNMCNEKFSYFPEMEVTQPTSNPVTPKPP
# assayText: ELISA
measuredEndpoint: optical density (OD)
Could you give me the number in OD? Just the number is fine.

Use the examples below as a reference point.
binder	optical density [OD]
367_D12 (antibody, V domains shown, Group III) VH: EVQLLESGGGLVQPGGSLRLSCAASGFTFSSYSMNWVRQAPGKGLEWVSSINYNGGYTGYADSVKGRFTISRDNSKNTLYLQMNSLRAEDTAVYYCARGANWHDTHLDYWGQGTLVTVSS VL: DIQMTQSPSSLSASVGDRVTITCRASQSIVSYVNWYQQKPGKAPKLVIYAATSRASGVPSRFSGSGSGTDFTLTISSLQPEDFATYYCQQSYESPLTFGGGTKVEIK	2.44
374_G10 (antibody, V domains shown, Group III) VH: EVQLLESGGGLVQPGGSLRLSCAASGFTFSSYSMNWVRQAPGKGLEWVSSINYNSGYTSYADSVKGRFTISRDNSKNTLYLQMNSLRAEDTAVYYCARGANWHDTHLDYWGQGTLVTVSS VL: DIQMTQSPSSLSASVGDRVTITCRASQSIVSYLNWYQQKPGKAPKLVIYAVTSRASGVPSRFSGSGSGTDFTLTISSLQPEDFATYYCQQSYDSPLTFGGGTKVEIK	3.68
375_G04 (antibody, V domains shown, Group III) VH: EVQLLESGGGLVQPGGSLRLSCAASGFTFSSYGMNWVRQAPGKGLEWVASINYNSGYTGYADSVKGRFTISRDNSKNTLYLQMNSLRAEDTAVYYCARGANWHDTHLDYWGQGTLVTVSS VL: DIQMTQSPSSLSASVGDRVTITCRASQSIVSYVNWYQQKPGKAPKLLIYAATSLASGVPSRFSGSGSGTDFTLTISSLQPEDFATYYCQQSYDSPLTFGGGTKVEIK	2.91
375_H05 (antibody, V domains shown, Group III) VH: EVQLLESGGGLVQPGGSLRLSCAASGFTFSSYSMNWVRQAPGKGLEWVSNINYNGGYTGYADSVKGRFTISRDNSKNTLYLQMNSLRAEDTAVYYCARGANWHDTALDYWGQGTLVTVSS VL: DIQMTQSPSSLSASVGDRVTITCRASQSILSYVNWYQQKPGKAPKLLIYAATSRASGVPSRFSGSGSGTDFTLTISSLQPEDFATYYCQQSYDTPLTFGGGTKVEIK	3.35
376_E11 (antibody, V domains shown, Group III) VH: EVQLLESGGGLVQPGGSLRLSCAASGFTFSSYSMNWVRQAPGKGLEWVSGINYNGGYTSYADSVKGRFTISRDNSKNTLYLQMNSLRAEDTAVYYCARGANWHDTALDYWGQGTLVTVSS VL: DIQMTQSPSSLSASVGDRVTITCRASQSILTYVNWYQQKPGKAPKLVIYAATSRASGVPSRFSGSGSGTDFTLTISSLQPEDFATYYCQQSYELPLTFGGGTKVEIK	3.68

Prompt: optical density for 369_D09 (antibody, V domains shown, Group III) VH: EVQLLESGGGLVQPGGSLRLSCAASGFTFSDYGMNWVRQAPGKGLEWVSNINYNGGYTSYADSVKGRFTISRDNSKNTLYLQMNSLRAEDTAVYYCARGANWHDTALDYWGQGTLVTVSS VL: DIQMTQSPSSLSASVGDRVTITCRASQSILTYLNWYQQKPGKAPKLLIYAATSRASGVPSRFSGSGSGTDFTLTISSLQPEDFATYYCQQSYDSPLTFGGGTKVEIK ?
Response: 3.3

Prompt: optical density for 375_A08 (antibody, V domains shown, Group III) VH: EVQLLESGGGLVQPGGSLRLSCAASGFTFSSYSMNWVRQAPGKGLEWVAGINYNGGYTGYADSVKGRFTISRDNSKNTLYLQMNSLRAEDTAVYYCARGANWHDTALDYWGQGTLVTVSS VL: DIQMTQSPSSLSASVGDRVTITCRASQSIVTYLNWYQQKPGKAPKLLIYAATSRASGVPSRFSGSGSGTDFTLTISSLQPEDFATYYCQQSYESPLTFGGGTKVEIK ?
Response: 3.68

Prompt: optical density for 368_E12 (antibody, V domains shown, Group III) VH: EVQLLESGGGLVQPGGSLRLSCAASGFTFSDYGMNWVRQAPGKGLEWVAGINYNGGYTSYADSVKGRFTISRDNSKNTLYLQMNSLRAEDTAVYYCARGANWHDTHLDYWGQGTLVTVSS VL: DIQMTQSPSSLSASVGDRVTITCRASQSIVSYVNWYQQKPGKAPKLVIYAVTSRASGVPSRFSGSGSGTDFTLTISSLQPEDFATYYCQQSYDSPLTFGGGTKVEIK ?
Response: 1.29

Prompt: optical density for 371_D04 (antibody, V domains shown, Group III) VH: EVQLLESGGGLVQPGGSLRLSCAASGFTFDDYSMNWVRQAPGKGLEWVAGINYNGGYTGYADSVKGRFTISRDNSKNTLYLQMNSLRAEDTAVYYCARGANWHDTHLDYWGQGTLVTVSS VL: DIQMTQSPSSLSASVGDRVTITCRASQSIVSYVNWYQQKPGKAPKLLIYAATSLASGVPSRFSGSGSGTDFTLTISSLQPEDFATYYCQQSYENPLTFGGGTKVEIK ?
Response: 1.02

Prompt: optical density for 373_A03 (antibody, V domains shown, Group III) VH: EVQLLESGGGLVQPGGSLRLSCAASGFTFSDYSMNWVRQAPGKGLEWVANINYNGGYTGYADSVKGRFTISRDNSKNTLYLQMNSLRAEDTAVYYCARGANWHDTALDYWGQGTLVTVSS VL: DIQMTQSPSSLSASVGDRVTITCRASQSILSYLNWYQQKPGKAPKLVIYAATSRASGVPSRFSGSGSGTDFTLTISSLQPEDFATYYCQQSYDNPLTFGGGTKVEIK ?
Response: 3.65
